Assay: Plasma concentration of omeprazole and hydroxyomeprazole by HPLC 3 hours after a single oral 20 mg omeprazole dose
Assay type: in vivo, human
Settings: both sexes, human, plasma, po, 20 mg, plasma, genotype 17*17, Total (10), 3 h after single oral 20 mg omeprazole; read-out: Mean OMP concentration ± SD
Description: The study protocol was approved by ethics committee of Tehran University of Medical Sciences (ethical no. 11208). Generally one hundred and eighty (60 women and 120 men) unrelated healthy Iranian volunteers with the mean age of between 20–55 years and average body weight of 45–89 kg took part in this study. […] Omeprazole powder was purchased from TMAD (Iran). […] The concentration of omeprazole and 5-hydroxyomeprazole was analyzed by HPLC method as described by Rezk et al. with a few modifications. […]
parameter_measured: concentration at 3 h (ng/mL)
The reply should contain only the number, in ng/mL.

Ask: So what does the record say about concentration at 3 h for COc1ccc2[nH]c([S+]([O-])Cc3ncc(C)c(OC)c3C)nc2c1 (stereo not shown) [omeprazole] ?
Reply: 71

----------
Assay: Plasma concentration of omeprazole and hydroxyomeprazole by HPLC 3 hours after a single oral 20 mg omeprazole dose
Type: in vivo, human
Details: female, human, plasma, po, 20 mg, plasma, genotype 2*2, Women (3), 3 h after single oral 20 mg omeprazole; read-out: Mean OMP concentration ± SD
parameter_measured: concentration at 3 h (ng/mL)
The reply should contain only the number, in ng/mL.

Ask: So what does the record say about concentration at 3 h for COc1ccc2[nH]c([S+]([O-])Cc3ncc(C)c(OC)c3C)nc2c1 (stereo not shown) ?
Reply: 1360

----------
Test: Plasma concentration of omeprazole and hydroxyomeprazole by HPLC 3 hours after a single oral 20 mg omeprazole dose
Type: in vivo, human
Settings: male, human, plasma, po, 20 mg, plasma, genotype 1*2, Men (20), 3 h after single oral 20 mg omeprazole; read-out: Mean OMP concentration ± SD
parameter_measured: concentration at 3 h (ng/mL)
The reply should contain only the number, in ng/mL.

Ask: So what does the record say about concentration at 3 h for COc1ccc2[nH]c([S+]([O-])Cc3ncc(C)c(OC)c3C)nc2c1 (stereo not shown) ?
Reply: 290

----------
Assay: Plasma concentration of omeprazole and hydroxyomeprazole by HPLC 3 hours after a single oral 20 mg omeprazole dose
Type: in vivo, human
Conditions: female, human, plasma, po, 20 mg, plasma, genotype 1*1, Women (22), 3 h after single oral 20 mg omeprazole; read-out: Mean OMP concentration ± SD
Method: The study protocol was approved by ethics committee of Tehran University of Medical Sciences (ethical no. 11208). Generally one hundred and eighty (60 women and 120 men) unrelated healthy Iranian volunteers with the mean age of between 20–55 years and average body weight of 45–89 kg took part in this study. […] Omeprazole powder was purchased from TMAD (Iran). […] The concentration of omeprazole and 5-hydroxyomeprazole was analyzed by HPLC method as described by Rezk et al. with a few modifications. […]
parameter_measured: concentration at 3 h (ng/mL)
The reply should contain only the number, in ng/mL.

Ask: So what does the record say about concentration at 3 h for COc1ccc2[nH]c([S+]([O-])Cc3ncc(C)c(OC)c3C)nc2c1 (stereo not shown) ?
Reply: 128

----------
Test: Plasma concentration of omeprazole and hydroxyomeprazole by HPLC 3 hours after a single oral 20 mg omeprazole dose
Assay type: in vivo, human
Conditions: female, human, plasma, po, 20 mg, plasma, genotype 1*17, Women (15), 3 h after single oral 20 mg omeprazole; read-out: Mean OMP concentration ± SD
parameter_measured: concentration at 3 h (ng/mL)
The reply should contain only the number, in ng/mL.

Ask: So what does the record say about concentration at 3 h for COc1ccc2[nH]c([S+]([O-])Cc3ncc(C)c(OC)c3C)nc2c1 (stereo not shown) [omeprazole] ?
Reply: 120
